# Target system: T1, hDicer PPC cassette (Homo sapiens, UniProt Q9UPY3 753-1068)
# T1 sequence: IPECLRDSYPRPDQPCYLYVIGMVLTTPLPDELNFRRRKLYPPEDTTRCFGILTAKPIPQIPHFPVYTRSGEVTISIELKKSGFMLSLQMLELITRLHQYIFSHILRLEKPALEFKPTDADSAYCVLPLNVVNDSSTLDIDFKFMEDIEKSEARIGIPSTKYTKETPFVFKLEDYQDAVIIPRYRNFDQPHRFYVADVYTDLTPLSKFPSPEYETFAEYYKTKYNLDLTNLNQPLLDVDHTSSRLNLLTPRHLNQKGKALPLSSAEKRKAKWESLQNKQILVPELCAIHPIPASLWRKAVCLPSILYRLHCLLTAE
# Protocol notes: EMSA; EMSA: 20 mM Tris-HCl pH 7.4, 100 mM KCl, 30 min on ice; 5% or 10% native PAGE at 4 C in 1x TBE; G-rich oligos folded in 50 mM KCl
# Setup conditions: protein: recombinant; tags: N-terminal 6xHis (pMCSG7); label: 5'-32P; G4 bimolecular, 2 strand copies (PDB 1JPQ)
pKd: −log10 of the molar value.
Quantity measured: pKd

Form: binder = GGGGTTTTGGGG (structured_DNA) [G4T4G4] ; pKd = ~6.43

Data provenance: paper PMC8038994
